- Test system: 755483-174-R-J1-PDC complex spheroid growth, percent test/control;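 also: spheroids exposed to compounds for seven days before readout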
- assay-comment: Anticancer human tumor 755483-174-R-J1-PDC patient-derived rhabdomyosarcoma cell line growth inhibition [Asc]
- condition: second compound 1 µM; first compound 0.316 µM; active compounds read low
- Description: Multicellular complex tumor spheroid response to apoptosis pathway targeting inhibitors Alrizomadlin, Pelcitoclax, and Dasminapant in combination with a variety of drugs and investigational agents in selected tumor cell lines […] Compounds. […] If the clinical Cmax for an agent had not been determined, the highest concentration tested was 10 microM. […]
assay-metric: viability, T/C (%)
Answers are plain numbers, in %.

The following compounds have reported results that may help.
CNC(C)C(=O)NC1CN(S(=O)(=O)c2cccc(S(=O)(=O)N3CCC4CCC(C(=O)NC(c5ccccc5)c5ccccc5)N4C(=O)C(NC(=O)C(C)NC)C3)c2)CCC2CCC(C(=O)NC(c3ccccc3)c3ccccc3)N2C1=O (stereo unspecified) + Cc1c(S(C)(=O)=O)c(-c2cc(F)cc(N3CCN(c4ccc(NS(=O)(=O)c5ccc(NC(CCN6CCC(C(=O)OCCCP(=O)(O)O)CC6)CSc6ccccc6)c(S(=O)(=O)C(F)(F)F)c5)cc4)CC3)c2)c(-c2ccc(Cl)cc2)n1C(C)C: 11.4
C=C(F)C(=O)N1CCN(c2nc(OCC3CCCN3C)nc3c2CCN(c2cccc4cccc(Cl)c24)C3)CC1CC#N (stereo unspecified) + Cc1c(S(C)(=O)=O)c(-c2cc(F)cc(N3CCN(c4ccc(NS(=O)(=O)c5ccc(NC(CCN6CCC(C(=O)OCCCP(=O)(O)O)CC6)CSc6ccccc6)c(S(=O)(=O)C(F)(F)F)c5)cc4)CC3)c2)c(-c2ccc(Cl)cc2)n1C(C)C: 32
COc1c(OCCCN2CCOCC2)ccc2c3n(c(=NC(=O)c4cnc(N)nc4)nc12)CCN3 + CNC(C)C(=O)NC1CN(S(=O)(=O)c2cccc(S(=O)(=O)N3CCC4CCC(C(=O)NC(c5ccccc5)c5ccccc5)N4C(=O)C(NC(=O)C(C)NC)C3)c2)CCC2CCC(C(=O)NC(c3ccccc3)c3ccccc3)N2C1=O: 22.7
C#Cc1c(F)ccc2cc(O)cc(-c3ncc4c(N5CC6CCC(C5)N6)nc(OCC56CCCN5CC(F)C6)nc4c3F)c12 (stereo unspecified) + CNC(C)C(=O)NC1CN(S(=O)(=O)c2cccc(S(=O)(=O)N3CCC4CCC(C(=O)NC(c5ccccc5)c5ccccc5)N4C(=O)C(NC(=O)C(C)NC)C3)c2)CCC2CCC(C(=O)NC(c3ccccc3)c3ccccc3)N2C1=O: 31.7
C#Cc1c(F)ccc2cc(O)cc(-c3ncc4c(N5CC6CCC(C5)N6)nc(OCC56CCCN5CC(F)C6)nc4c3F)c12 (stereo unspecified) + Cc1c(S(C)(=O)=O)c(-c2cc(F)cc(N3CCN(c4ccc(NS(=O)(=O)c5ccc(NC(CCN6CCC(C(=O)OCCCP(=O)(O)O)CC6)CSc6ccccc6)c(S(=O)(=O)C(F)(F)F)c5)cc4)CC3)c2)c(-c2ccc(Cl)cc2)n1C(C)C: 39.1

// moving on: another record for viability, T/C
Exercise: Record request: viability, T/C value, item C=CC(=O)N1CCN(c2nc(=O)n(-c3c(C)ccnc3C(C)C)c3nc(-c4c(O)cccc4F)c(F)cc23)C(C)C1 (stereo unspecified) + Cc1c(S(C)(=O)=O)c(-c2cc(F)cc(N3CCN(c4ccc(NS(=O)(=O)c5ccc(NC(CCN6CCC(C(=O)OCCCP(=O)(O)O)CC6)CSc6ccccc6)c(S(=O)(=O)C(F)(F)F)c5)cc4)CC3)c2)c(-c2ccc(Cl)cc2)n1C(C)C
Solution: 54.8
